Catalogue of (% PHAGE) readings, one per entry.
- Test system: kidney
- TEST METHOD NOTES: In vivo panning of phage peptide display libraries, kidney as the selected organ (brain control)
- Set-up: species or system mice
- CONDITION: % of the 48 clones sequenced, phage recovered from kidney
REPORTED PROPERTY: (% PHAGE) (%)

[[record]]
substance = "CKLLSGVC (displayed on phage) [peptide from phage recovered from kidney]"
unit_string = "%"
quantitative_readout = 2.1

[[record]]
substance = "CRRFQDC (displayed on phage) [peptide from phage recovered from kidney]"
unit_string = "%"
quantitative_readout = 2.1

[[record]]
substance = "CFVGHDLC (displayed on phage) [peptide from phage recovered from kidney]"
unit_string = "%"
quantitative_readout = 2.1

[[record]]
substance = "CLMGVHC (displayed on phage) [peptide from phage recovered from kidney]"
unit_string = "%"
quantitative_readout = 2.1

[[record]]
substance = "CMGRWRLC (displayed on phage) [peptide from phage recovered from kidney]"
unit_string = "%"
quantitative_readout = 2.1


###

Catalogue of (% PHAGE) readings, one per entry.
- Test system: kidney
- TEST METHOD NOTES: In vivo panning of phage peptide display libraries, kidney as the selected organ (brain control)
- Parameters: species or system mice
- CONDITION: % of the 48 clones sequenced, phage recovered from kidney
- Protocol: A mixture of phage libraries containing 1 x 10^14 TU was diluted in 200 µl DMEM and injected into the tail vein of anesthetized BALB\c mice (2 month old females; Jackson Laboratories; Bar Harbor ME); Avertin™ (0.015 ml/g) was used as anesthetic (see Pasqualini and Ruoslahti, supra, 1996). After 1-4 minutes, mice were snap frozen in liquid nitrogen. […] The amino acid sequences were determined for the inserts in 48 cloned phage that homed to kidney. […]
Where no end group is shown, it is not given here.
REPORTED PROPERTY: (% PHAGE) (%)

[[record]]
substance = "CKLMGEC (displayed on phage) [peptide from phage recovered from kidney]"
test_target = "kidney"
quantitative_readout = 2.1

[[record]]
substance = "CLGRSSVC (displayed on phage) [peptide from phage recovered from kidney]"
test_target = "kidney"
quantitative_readout = 4.2

[[record]]
substance = "CKGRSSAC (cysteine pairing not given here; also: displayed on phage)"
test_target = "kidney"
quantitative_readout = 6.2

[[record]]
substance = "CWARAQGC (displayed on phage) [peptide from phage recovered from kidney]"
test_target = "kidney"
quantitative_readout = 4.2


###

Catalogue of (% PHAGE) readings, one per entry.
- Tested on: kidney
- TEST METHOD NOTES: In vivo panning of phage peptide display libraries, kidney as the selected organ (brain control)
- Design: species or system mice
- CONDITION: % of the 48 clones sequenced, phage recovered from kidney
REPORTED PROPERTY: (% PHAGE) (%)

[[record]]
substance = "CTSPGGSC (displayed on phage) [peptide from phage recovered from kidney]"
test_target = "kidney"
reported_property = "(% PHAGE)"
quantitative_readout = 4.2

[[record]]
substance = "CVGECGGC (displayed on phage) [peptide from phage recovered from kidney]"
test_target = "kidney"
reported_property = "(% PHAGE)"
quantitative_readout = 2.1

[[record]]
substance = "CRCLNVC (displayed on phage) [peptide from phage recovered from kidney]"
test_target = "kidney"
reported_property = "(% PHAGE)"
quantitative_readout = 2.1

[[record]]
substance = "CVAWLNC (displayed on phage) [peptide from phage recovered from kidney]"
test_target = "kidney"
reported_property = "(% PHAGE)"
quantitative_readout = 2.1

